Test system: T-24;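 further: growth inhibition of T-24 cells, read out with a cell viability assay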
method-notes: cells
Format: functional, cell-based, Homo sapiens
condition-info: Homo sapiens, T-24
Description: SANGER: Inhibition of human T-24 cell growth in a cell viability assay.
value-type: IC50

Requested field: IC50. Item: COc1cccc2c1C(=O)c1c(O)c3c(c(O)c1C2=O)C[C@@](O)(C(=O)CO)C[C@@H]3O[C@H]1C[C@H](N)[C@H](O)[C@H](C)O1 [DOXORUBICIN]
245 nM

Also need N#Cc1c(O)c2c(-c3ccc(-c4ccccc4O)cc3)csc2[nH]c1=O , thanks.
> 1020 nM

Repeat with C=C(c1ccc(C(=O)O)cc1)c1cc2c(cc1C)C(C)(C)CCC2(C)C [BEXAROTENE]
> 8000 nM

Try this compound next: O=C(O)c1ccc(-c2c[nH]c3ncc(-c4ccccc4)cc23)cc1C1CCCC1 [GSK-650394]
> 16000 nM

For CCN(CC)CCCCNc1ncc2cc(-c3cc(OC)cc(OC)c3)c(NC(=O)NC(C)(C)C)nc2n1 [PD-173074] then?
> 2000 nM

====

System: NCI-H522;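 further: cell viability assay measuring growth inhibition of human NCI-H522 cells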
method-notes: cells
Assay type: functional, cell-based, Homo sapiens
condition-info: Homo sapiens, NCI-H522
Description: SANGER: Inhibition of human NCI-H522 cell growth in a cell viability assay.
value-type: IC50

Before answering, review these 2 worked examples.
- C=C(c1ccc(C(=O)O)cc1)c1cc2c(cc1C)C(C)(C)CCC2(C)C: > 8000 nM
- Cc1cc([N+](=O)[O-])ccc1NS(=O)(=O)c1cc(Cl)ccc1Cl: 1400 nM

Any idea what its IC50 is? The compound is Cn1cnc2c(F)c(Nc3ccc(Br)cc3Cl)c(C(=O)NOCCO)cc21
> 4000 nM

====

Listed compounds paired with reported pIC50
System: WSU-NHL
method-notes: cells
Assay type: functional, cell-based, Homo sapiens
condition-info: Homo sapiens, WSU-NHL
Description: SANGER: Inhibition of human WSU-NHL cell growth in a cell viability assay.
pIC50: −log10 of the molar value.

* C=C(c1ccc(C(=O)O)cc1)c1cc2c(cc1C)C(C)(C)CCC2(C)C | < 5.10
* Oc1ccc2ccccc2c1SSc1c(O)ccc2ccccc12 | 5.26
* COc1cc2ncn(-c3cc(OCc4ccccc4S(C)(=O)=O)c(C#N)s3)c2cc1OC [GSK-319347A] | < 5.30
* O=C(O)c1ccc(-c2c[nH]c3ncc(-c4ccccc4)cc23)cc1C1CCCC1 | < 4.80
* CC(=O)O[C@H]1C(=O)[C@@]2(C)[C@H]([C@H](OC(=O)c3ccccc3)[C@]3(O)C[C@H](OC(=O)[C@H](O)[C@@H](NC(=O)c4ccccc4)c4ccccc4)C(C)=C1C3(C)C)[C@]1(OC(C)=O)CO[C@@H]1C[C@@H]2O | < 6.99

Which value of pIC50 has been reported for COc1cc2ncn(-c3cc(OCc4ccccc4C(F)(F)F)c(C(N)=O)s3)c2cc1OC [GW843682X] in the records?
< 6.59

====

In this section we review reported IC50 values for a set of compounds.
Test system: NEC8;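 further: growth inhibition of human NEC8 cells, read out by a cell viability assay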
method-notes: cells
Assay type: functional, cell-based, Homo sapiens
condition-info: Homo sapiens, NEC8
Description: SANGER: Inhibition of human NEC8 cell growth in a cell viability assay.
Write the number in µM without appending the unit.

Answered cases to consult:
- CCN(CC)CCCCNc1ncc2cc(-c3cc(OC)cc(OC)c3)c(NC(=O)NC(C)(C)C)nc2n1: 0.563
- CN(C)C(=N)NC(=N)N: 16000
- N#Cc1c(O)c2c(-c3ccc(-c4ccccc4O)cc3)csc2[nH]c1=O: 0.48

// next item, IC50 requested
Which IC50 value is on record for N[C@@H](CSC(c1ccccc1)(c1ccccc1)c1ccccc1)C(=O)O ?
2.69

====

Tested on: NCI-H1522
method-notes: cells
Type: functional, cell-based, Homo sapiens
condition-info: Homo sapiens, NCI-H1522
Description: SANGER: Inhibition of human NCI-H1522 cell growth in a cell viability assay.
Listed below: IC50 values for each entry.

• CCN(CC)CCNC(=O)c1c(C)[nH]c(/C=C2\C(=O)Nc3ccc(F)cc32)c1C = > 8 µM

Entry COc1cc2ncn(-c3cc(OCc4ccccc4C(F)(F)F)c(C(N)=O)s3)c2cc1OC [GW843682X] : reported IC50 = ?
> 0.256 µM

And then OCCCNc1cc(-c2ccnc(Nc3cccc(Cl)c3)n2)ccn1 , what is it?
> 0.256 µM

Also COc1cc(N2CCN(C)CC2)ccc1Nc1ncc2c(n1)N(C)c1ccccc1C(=O)N2C , if possible.
> 8 µM

====

Test system: LB771-HNC
method-notes: cells
Format: functional, cell-based, Homo sapiens
condition-info: Homo sapiens, LB771-HNC
Description: SANGER: Inhibition of human LB771-HNC cell growth in a cell viability assay.
value-type: IC50

* COc1cc2ncn(-c3cc(OCc4ccccc4S(C)(=O)=O)c(C#N)s3)c2cc1OC [GSK-319347A] | > 5000 nM

Here's the next entry for you.
Given the compound CO[C@H]1C[C@@H]2CC[C@@H](C)[C@@](O)(O2)C(=O)C(=O)N2CCCC[C@H]2C(=O)O[C@H]([C@H](C)C[C@@H]2CC[C@@H](OC(=O)C(C)(CO)CO)[C@H](OC)C2)CC(=O)[C@H](C)/C=C(\C)[C@@H](O)[C@@H](OC)C(=O)[C@H](C)C[C@H](C)/C=C/C=C/C=C/1C , what is its reported IC50?
> 200 nM

====

System: NOMO-1;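 further: growth inhibition of human NOMO-1 cells measured by a cell viability assay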
method-notes: cells
Format: functional, cell-based, Homo sapiens
condition-info: Homo sapiens, NOMO-1
Description: SANGER: Inhibition of human NOMO-1 cell growth in a cell viability assay.
value-type: pIC50
In plain terms, pIC50 is the concentration in mol/L turned into minus its base-10 logarithm.

• CCN(CC)CCNC(=O)c1c(C)[nH]c(/C=C2\C(=O)Nc3ccc(F)cc32)c1C = 5.36

Any idea what pIC50 was measured for Cn1cnc2c(F)c(Nc3ccc(Br)cc3Cl)c(C(=O)NOCCO)cc21 ?
7.50

====

Test system: BL-41
method-notes: cells
Type: functional, cell-based, Homo sapiens
condition-info: Homo sapiens, BL-41
Description: SANGER: Inhibition of human BL-41 cell growth in a cell viability assay.
IC50 values for the compounds below.
Numbers only; they are read as nM.

Previously resolved entries follow.
• Nc1ccn([C@@H]2O[C@H](CO)[C@@H](O)C2(F)F)c(=O)n1 [GEMCITABINE] = 14.4
• COc1cccc2c1C(=O)c1c(O)c3c(c(O)c1C2=O)C[C@@](O)(C(=O)CO)C[C@@H]3O[C@H]1C[C@H](N)[C@H](O)[C@H](C)O1 [DOXORUBICIN] = 122

State the recorded IC50 for this entry: N[C@@H](CSC(c1ccccc1)(c1ccccc1)c1ccccc1)C(=O)O [S-TRITYL-L-CYSTEINE]
1640

====

Test system: HSC-4
method-notes: cells
Format: functional, cell-based, Homo sapiens
condition-info: Homo sapiens, HSC-4
Description: SANGER: Inhibition of human HSC-4 cell growth in a cell viability assay.
Structures can show the parent of a compound that is named as a salt.
# Lookup of reported IC50 keyed by entry
Report the figure in µM without appending any unit label.

• CN(C)C(=N)NC(=N)N = 5480

Given COC1=CC(c2cc3ccccc3[nH]2)=N/C1=C\c1[nH]c(C)cc1C [OBATOCLAX MESYLATE] , state its recorded IC50.
0.667

====

IC50: recorded values
Tested on: SK-MEL3
method-notes: cells
Type: functional, cell-based, Homo sapiens, SK-MEL-3
condition-info: Homo sapiens, SK-MEL3
Description: SANGER: Inhibition of human SK-MEL-3 cell growth in a cell viability assay.

Example results:
- Nc1ccn([C@@H]2O[C@H](CO)[C@@H](O)C2(F)F)c(=O)n1: 0.105 µM
- Oc1ccc2ccccc2c1SSc1c(O)ccc2ccccc12: > 32 µM

Record request: IC50 value, item CO[C@H]1C[C@@H]2CC[C@@H](C)[C@@](O)(O2)C(=O)C(=O)N2CCCC[C@H]2C(=O)O[C@H]([C@H](C)C[C@@H]2CC[C@@H](OC(=O)C(C)(CO)CO)[C@H](OC)C2)CC(=O)[C@H](C)/C=C(\C)[C@@H](O)[C@@H](OC)C(=O)[C@H](C)C[C@H](C)/C=C/C=C/C=C/1C
> 0.2 µM

Quick one: CC1(C)CNc2cc(NC(=O)c3cccnc3NCc3ccncc3)ccc21
> 2 µM

Repeat with Cc1cn(-c2cc(NC(=O)c3ccc(C)c(Nc4nccc(-c5cccnc5)n4)c3)cc(C(F)(F)F)c2)cn1
> 2 µM

CS(=O)(=O)c1ccc(C(=O)Nc2ccc(Cl)c(-c3ccccn3)c2)c(Cl)c1 , same question.
> 10 µM

Nc1cccc2c1CN(C1CCC(=O)NC1=O)C2=O (configuration not stated) [LENALIDOMIDE] ?
> 5 µM

====

Let's look at some compounds and their measured IC50.
Tested on: BC-3;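 further: cell viability assay measuring growth inhibition of human BC-3 cells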
method-notes: cells
Assay type: functional, cell-based, Homo sapiens
condition-info: Homo sapiens, BC-3
Description: SANGER: Inhibition of human BC-3 cell growth in a cell viability assay.
Structures can show the parent of a compound that is named as a salt.

Illustrative cases are given below, each with its answer.
- C#Cc1cccc(Nc2ncnc3cc(OCCOC)c(OCCOC)cc23)c1 [ERLOTINIB]: > 2000 nM
- Oc1ccc2ccccc2c1SSc1c(O)ccc2ccccc12: > 32000 nM
- N#Cc1c(O)c2c(-c3ccc(-c4ccccc4O)cc3)csc2[nH]c1=O: > 1020 nM
- COc1cc(-c2nn([C@H]3CC[C@H](N4CCN(C(C)=O)CC4)CC3)c3ncnc(N)c23)ccc1NC(=O)c1cc2ccccc2n1C: > 5120 nM
- COC1=CC(c2cc3ccccc3[nH]2)=N/C1=C\c1[nH]c(C)cc1C [OBATOCLAX MESYLATE]: 2370 nM
- Cc1cc([N+](=O)[O-])ccc1NS(=O)(=O)c1cc(Cl)ccc1Cl: 8380 nM

Hello, I am looking for reported IC50 with BC-3 for COc1cc(N2CCN(C)CC2)ccc1Nc1ncc2c(n1)N(C)c1ccccc1C(=O)N2C . Could you help?
> 8000 nM

Now consider OCCCNc1cc(-c2ccnc(Nc3cccc(Cl)c3)n2)ccn1 .
76.6 nM
